The entries below come with measured GI50 values attached.
# System: K562
# assay_comment: NCI tumour cell line growth inhibition, 48 h
Calls of active or inactive are those of the source. Cut-off read from the data, not from the text of the source: active = GI50 up to about 1.1 µM and inactive = higher.

{"columns": ["molecule", "GI50"],
 "data": [
  ["CC(C)(C)C(=O)Nc1ccccc1Br", "> 100 µM (inactive)"],
  ["CCC(C)CCOC(=O)c1ccc(/N=C\\c2ccc(/C=N/c3ccc(C(=O)OCCC(C)CC)cc3)cc2)cc1 (stereo unspecified)", "> 100 µM (inactive)"],
  ["CN(C(=O)C12C3C4C1C1C2C3C41C(O)C(C)(C)C)C(C)(C)C (stereo unspecified)", "> 100 µM (inactive)"],
  ["Cc1ccccc1OC(C)C(=O)NN1C(=O)CSC1c1ccccc1 (stereo unspecified)", "14.7 µM (inactive)"],
  ["O=C(CNc1nncs1)NO", "> 100 µM (inactive)"],
  ["CN(C)CC1CCCC(CN(C)C)C1=NOC(=O)c1ccccc1 (stereo unspecified)", "> 100 µM (inactive)"],
  ["COc1cccc(C2CC(=O)c3cccn32)c1 (stereo unspecified)", "> 100 µM (inactive)"],
  ["O=C(/C=C/c1ccc(OCCCOc2ccc(/C=C/C(=O)c3ccccc3)cc2)cc1)c1ccccc1", "> 100 µM (inactive)"],
  ["O=C(CCc1nnc2s/c(=C\\c3ccccc3[N+](=O)[O-])c(=O)n12)Nc1cc(Cl)c(Cl)cc1Cl", "22 µM (inactive)"],
  ["CCOc1c(Br)cc(Br)cc1C=C(C#N)C#N", "1.16 µM (inactive)"],
  ["COc1ccc2c(c1)CC1Cc3ccccc3CCN1C2 (stereo unspecified)", "56.2 µM (inactive)"]
]}

###

The entries below come with measured GI50 values attached.
# System: DMS-273
# assay_comment: NCI tumour cell line growth inhibition, 48 h
The source made the active and inactive calls. Rule as the data show it: active = GI50 up to about 1.1 µM and inactive = higher.
endpoint_label: GI50

{"columns": ["molecule", "endpoint_label", "meas_value"],
 "data": [
  ["C=CCN1CCC23c4c5ccc(O)c4OC2C(=NN=C2CCC4(O)C6Cc7ccc(O)c8c7C4(CCN6CC=C)C2O8)CCC3(O)C1C5 (stereo not given)", "GI50", "19.1 µM (inactive)"],
  ["CN(C)CC1CCCC(CN(C)C)C1=NOC(=O)c1ccccc1 (stereo not given)", "GI50", "> 100 µM (inactive)"],
  ["O=c1cccccc1NCCCCNc1cccccc1=O", "GI50", "> 100 µM (inactive)"],
  ["CSc1ccc2c(cc1=O)C(NC(=O)c1ccc(OC(C)=O)cc1)CCc1cc(O)c(O)c(O)c1-2 (stereo not given)", "GI50", "22.5 µM (inactive)"],
  ["O=C(CCC(=O)C(C(=O)c1ccccc1)c1ccccc1)Nc1cccc(C(F)(F)F)c1 (stereo not given)", "GI50", "> 100 µM (inactive)"]
]}

###

The entries below come with measured GI50 values attached.
# Tested on: KM12
# assay_comment: NCI tumour cell line growth inhibition, 48 h
Calls of active or inactive are those of the source. No stated cut-off is given here; in the data, active = GI50 up to about 1.1 µM and inactive = higher.

{"columns": ["compound", "GI50"],
 "data": [
  ["Cc1nc2c(N)ncnc2o1", "> 100 µM (inactive)"],
  ["COC(=O)[C@H](C)NC(=O)[C@H](NS(=O)(=O)c1nc2ccccc2s1)c1ccccc1", "14 µM (inactive)"],
  ["OC(c1nc2ccccc2[nH]1)C(O)C(O)C(O)c1nc2ccccc2[nH]1 (stereo not drawn)", "> 100 µM (inactive)"],
  ["O=C(N/N=C\\c1ccc([N+](=O)[O-])cc1)Nc1cccc2ccccc12", "> 29.7 µM (inactive)"],
  ["Cc1cc2nc3c(C#N)c(-c4ccccc4)cc(Nc4ccc(Cl)cc4)n3c2cc1C", "59.4 µM (inactive)"],
  ["CSc1nc(=O)cnn1C", "> 100 µM (inactive)"],
  ["COc1cccc(-c2cc(O)c3cc(N4CCCC4)ccc3n2)c1", "< 0.001 µM (active)"],
  ["CC1=C(C)C(=O)c2c(cc3ccc4ccccc4n23)C1=O", "> 100 µM (inactive)"],
  ["COC(=O)CNC(=O)CCC(C)[C@H]1CCC2C3C(C[C@H](OC(C)=O)[C@@]21C)[C@@]1(C)CCC2(C[C@H]1C[C@H]3OC(C)=O)OOC1(CC[C@]3(C)C4C[C@H](OC(C)=O)[C@@]5(C)C(CC[C@@H]5C(C)CCC(=O)NCC(=O)OC)C4[C@H](OC(C)=O)C[C@@H]3C1)OO2 (stereo partly drawn)", "3.98 µM (inactive)"],
  ["CN(C)CCNC(=O)c1cccc2ccc(-c3ccc(-c4ccccc4)cc3)nc12", "2.09 µM (inactive)"],
  ["C[C@]12CC[C@H](O)CC1=CC[C@@H]1C2CC[C@]2(C)c3nn(-c4ccc(F)cc4)nc3CC12 (stereo partly drawn)", "24.3 µM (inactive)"],
  ["CC(O)(/C=C/c1ccccc1)P(=O)(O)c1ccccc1 (stereo not drawn)", "> 100 µM (inactive)"],
  ["COc1ccccc1/N=C1\\SCCN1C(=S)Nc1ccc(S(=O)(=O)/N=C/N(C)C)cc1", "> 100 µM (inactive)"],
  ["CC1=NN(c2ccccc2)C(=O)C1/N=N/c1ccc([As](=O)(O)O)c(O)c1 (stereo not drawn)", "> 100 µM (inactive)"],
  ["Cc1ccc(-c2c(C#N)c(-c3ccc(N(C)C)cc3)c(C#N)c(=O)n2NS(=O)(=O)c2ccccc2)cc1", "31.3 µM (inactive)"],
  ["Nc1ncnc2c1ncn2[C@@H]1O[C@H](COP(=O)(O)OP(=O)(O)OC[C@H]2O[C@@H](OCCCO)[C@H](O)[C@@H]2O)[C@@H](O)[C@H]1O", "63.5 µM (inactive)"],
  ["CSc1ccc2c(cc1=O)C(NC(=O)c1ccc(OC(C)=O)cc1)CCc1cc(O)c(O)c(O)c1-2 (stereo not drawn)", "32 µM (inactive)"],
  ["C/C(=N\\NC(=S)N1CCN(c2ccccn2)CC1)c1ccccn1", "0.129 µM (active)"]
]}
